Values compiled from paper PMC10258794.

System: K. pneumoniae NCTC418
conditionNotes: MH broth pH 7.4, 16–20 h, 37 °C
quantityKind: MIC K. pneumoniae NCTC418

Worked examples follow.
# compound, val
rows = [
    ("CC(C)C[C@H](NC(=O)[C@H](CCCCN)NC(=O)[C@H](N)CCCCN)C(=O)N[C@@H](CC(C)C)C(=O)N[C@H](CCCCN)C(=O)N[C@H](CC(C)C)C(=O)N[C@H](CC(C)C)C(=O)N[C@@H](CCCCN)C(=O)N[C@@H](CC(C)C)C(=O)N[C@@H](CC(C)C)C(=O)N[C@H](CC(C)C)C(N)=O [HP28, kKLLkllKLLl]", ">64 µg/mL"),
    ("CC(C)C[C@H](NC(=O)[C@H](CC(C)C)NC(=O)[C@@H](CCCCN)NC(=O)[C@H](CC(C)C)NC(=O)[C@H](CC(C)C)NC(=O)[C@@H](CCCCN)NC(=O)[C@H](CC(C)C)NC(=O)[C@H](CC(C)C)NC(=O)[C@@H](CCCCN)NC(=O)[C@H](N)CCCCN)C(=O)N[C@H](CC(C)C)C(N)=O [HP27, kkLLkLLkLLl]", ">64 µg/mL"),
]

Shifting focus to the compound that follows.
Recorded MIC K. pneumoniae NCTC418 for CC(C)C[C@H](NC(=O)[C@H](CC(C)C)NC(=O)[C@H](CC(C)C)NC(=O)[C@H](CCCCN)NC(=O)[C@@H](CC(C)C)NC(=O)[C@@H](CC(C)C)NC(=O)[C@H](CCCCN)NC(=O)[C@@H](CC(C)C)NC(=O)[C@@H](CC(C)C)NC(=O)[C@H](CCCCN)NC(=O)[C@@H](N)CCCCN)C(N)=O [HP14, KKllKllKLLL] , please?
>64 µg/mL

###

Test system: Stenotrophomonas maltophilia
procedureText: microbe, parasite or virus in culture
Type: cell-based
conditionNotes: pH 7.4
quantityKind: MIC Stenotrophomonas maltophilia (µg/mL)
Dear colleague, please return just the value in µg/mL, with no unit written.

Worked examples follow.
# compound, MIC Stenotrophomonas maltophilia, µg/mL
rows = [
    ("CC(C)C[C@H](NC(=O)[C@H](CC(C)C)NC(=O)[C@H](CC(C)C)NC(=O)[C@H](CCCCN)NC(=O)[C@H](CC(C)C)NC(=O)[C@H](CC(C)C)NC(=O)[C@H](CCCCN)NC(=O)[C@H](CC(C)C)NC(=O)[C@H](CC(C)C)NC(=O)[C@@H](CCCCN)NC(=O)[C@H](N)CCCCN)C(N)=O [HP2]", 2),
    ("CC(C)C[C@H](NC(=O)[C@H](CC(C)C)NC(=O)[C@H](CC(C)C)NC(=O)[C@H](CCCCN)NC(=O)[C@@H](CC(C)C)NC(=O)[C@H](CC(C)C)NC(=O)[C@H](CCCCN)NC(=O)[C@@H](CC(C)C)NC(=O)[C@@H](CC(C)C)NC(=O)[C@@H](CCCCN)NC(=O)[C@@H](N)CCCCN)C(N)=O [HP11, KkllKLlKLLL]", 4),
    ("CC(C)C[C@@H](NC(=O)[C@@H](CC(C)C)NC(=O)[C@@H](CC(C)C)NC(=O)[C@H](CCCCN)NC(=O)[C@@H](CC(C)C)NC(=O)[C@@H](CC(C)C)NC(=O)[C@H](CCCCN)NC(=O)[C@@H](CC(C)C)NC(=O)[C@@H](CC(C)C)NC(=O)[C@H](CCCCN)NC(=O)[C@@H](N)CCCCN)C(N)=O [dln69, KKllKllKlll]", 2),
    ("CC(C)C[C@H](NC(=O)[C@H](CC(C)C)NC(=O)[C@H](CC(C)C)NC(=O)[C@@H](CCCCN)NC(=O)[C@H](CC(C)C)NC(=O)[C@H](CC(C)C)NC(=O)[C@@H](CCCCN)NC(=O)[C@H](CC(C)C)NC(=O)[C@H](CC(C)C)NC(=O)[C@@H](CCCCN)NC(=O)[C@H](N)CCCCN)C(N)=O [ln69, kkLLkLLkLLL]", 2),
    ("CC(C)C[C@H](NC(=O)[C@H](CCCCN)NC(=O)[C@H](N)CCCCN)C(=O)N[C@@H](CC(C)C)C(=O)N[C@@H](CCCCN)C(=O)N[C@@H](CC(C)C)C(=O)N[C@@H](CC(C)C)C(=O)N[C@@H](CCCCN)C(=O)N[C@@H](CC(C)C)C(=O)N[C@@H](CC(C)C)C(=O)N[C@H](CC(C)C)C(N)=O [HP5]", 2),
]

Recorded MIC Stenotrophomonas maltophilia for CC(C)C[C@H](NC(=O)[C@H](CC(C)C)NC(=O)[C@H](CC(C)C)NC(=O)[C@H](CCCCN)NC(=O)[C@H](CC(C)C)NC(=O)[C@H](CC(C)C)NC(=O)[C@H](CCCCN)NC(=O)[C@@H](CC(C)C)NC(=O)[C@H](CC(C)C)NC(=O)[C@@H](CCCCN)NC(=O)[C@@H](N)CCCCN)C(N)=O [HP4, KkLlKLLKLLL] , please?
2
